For each of the molecules below, state its MIC.
System: Enterobacter cloacae 963
Experiment: Antibacterial activity, agar-dilution MIC, organism No. 24
Type: cell-based
Conditions: Enterobacter cloacae, 963; Organism No. 24, bouillon-agar; read-out: Minimum Inhibitory Concentration
Number in µg/mL, nothing else.

Provide MIC, recorded with Enterobacter cloacae 963, of [C-]#[N+]C12CC3(/C=C/C(=O)Nc4cccc(Cl)c4)OC3C1O2 (stereo not shown) 50

Give MIC; test system Enterobacter cloacae 963; molecule [C-]#[N+]C12CC3(/C=C/C(=O)Nc4cccc(C(=O)OC)c4)OC3C1O2 (stereo not shown) 200

====

Consider the following compounds; for each one, report its MIC.
Tested on: Enterobacter cloacae 963
Assay: Antibacterial activity, agar-dilution MIC, organism No. 24
Type: cell-based
Conditions: Enterobacter cloacae, 963; Organism No. 24, bouillon-agar; read-out: Minimum Inhibitory Concentration

Tell me measured MIC for [C-]#[N+]C12CC3(/C=C/C(=O)NCc4ccccc4)OC3C1O2 (stereo not shown) please. > 100 µg/mL

Respond only with MIC recorded for [C-]#[N+]C12CC3(/C=C/C(=O)Nc4cc(C(=O)OC)ccc4OC)OC3C1O2 (stereo not shown) > 200 µg/mL

Identify measured MIC corresponding to [C-]#[N+]C12CC3(/C=C/C(=O)OCc4cc([N+](=O)[O-])ccc4O)OC3C1O2 (stereo not shown) > 200 µg/mL

Consider the compound [C-]#[N+]C12CC3(/C=C/C(=O)Nc4ccc(Cl)cc4)OC3C1O2 (stereo not shown) and give its recorded MIC. 200 µg/mL
